Each entry below carries its recorded Potency.
TARGET OR TEST SYSTEM: Glucocorticoid receptor (Homo sapiens) (UniProt P04150)
Sequence (P04150 whole entry, looked up): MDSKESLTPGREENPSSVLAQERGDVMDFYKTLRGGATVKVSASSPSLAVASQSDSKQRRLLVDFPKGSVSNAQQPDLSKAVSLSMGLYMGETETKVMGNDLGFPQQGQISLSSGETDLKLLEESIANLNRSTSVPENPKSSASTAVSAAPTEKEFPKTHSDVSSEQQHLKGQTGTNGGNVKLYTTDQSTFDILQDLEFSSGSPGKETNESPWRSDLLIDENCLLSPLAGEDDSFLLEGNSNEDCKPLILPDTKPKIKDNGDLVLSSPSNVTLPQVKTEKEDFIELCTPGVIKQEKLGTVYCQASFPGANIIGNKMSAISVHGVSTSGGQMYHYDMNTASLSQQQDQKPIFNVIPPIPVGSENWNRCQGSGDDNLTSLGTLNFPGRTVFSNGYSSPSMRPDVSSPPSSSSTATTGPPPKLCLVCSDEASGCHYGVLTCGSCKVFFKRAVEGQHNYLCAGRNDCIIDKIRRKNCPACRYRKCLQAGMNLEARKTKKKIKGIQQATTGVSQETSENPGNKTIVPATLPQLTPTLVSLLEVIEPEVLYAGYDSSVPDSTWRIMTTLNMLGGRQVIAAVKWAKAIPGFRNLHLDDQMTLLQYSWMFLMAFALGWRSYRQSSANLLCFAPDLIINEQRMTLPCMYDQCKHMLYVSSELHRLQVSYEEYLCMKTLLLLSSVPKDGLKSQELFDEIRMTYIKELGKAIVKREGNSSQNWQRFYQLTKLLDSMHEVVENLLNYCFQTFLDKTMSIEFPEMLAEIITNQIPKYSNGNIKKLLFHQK
EXPERIMENT NOTES: GR-GFP Redistribution (AID 450); further: potency means the concentration at half of the fitted maximal effect
CONDITION DESCRIPTION: U2OS GR-GFP nuclear translocation, laser cytometry, 2 h
Activity calls are given as the source filed them.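 How the source made its calls: active means compounds whose dose series gives a full or clear partial fitted curve of increased nuclear translocation; inconclusive means weak partial curve or effect only at the top dose; inactive means no dose-dependent translocation response.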
ATTRIBUTE MEASURED: Potency

[[record]]
compound = "CN1CCN([C@@H](c2ccccc2)c2ccc(Cl)cc2)CC1"
attribute_measured = "Potency"
reported_result = "> 20.6 µM (inactive)"

[[record]]
compound = "C=C1C[C@@]23C[C@]1(O)CC[C@@H]2[C@]12C=C[C@@H](O)[C@](C)(C(=O)O1)[C@H]2[C@H]3C(=O)O"
attribute_measured = "Potency"
reported_result = "> 20.6 µM (inactive)"

[[record]]
compound = "C[C@@H](Cc1cccc(C(F)(F)F)c1)NCCOC(=O)c1ccccc1"
attribute_measured = "Potency"
reported_result = "> 20.6 µM (inactive)"

[[record]]
compound = "COc1c(-c2ccccc2)oc2c(ccc3occc32)c1=O"
attribute_measured = "Potency"
reported_result = "> 46 µM (inactive)"

[[record]]
compound = "FC(F)(F)c1ccccc1-c1ccc2ncnc(NC3CCNCC3)c2c1"
attribute_measured = "Potency"
reported_result = "> 46 µM (inactive)"

[[record]]
compound = "CN1CCCN=C1/C=C\\c1cccs1"
attribute_measured = "Potency"
reported_result = "> 20.6 µM (inactive)"

[[record]]
compound = "C=CCO[C@@H](Cn1ccnc1)c1ccc(Cl)cc1Cl"
attribute_measured = "Potency"
reported_result = "> 20.6 µM (inactive)"

[[record]]
compound = "C=C1CC[C@H](O)C/C1=C/C=C1\\CCC[C@]2(C)[C@H]1CC[C@H]2[C@@H](C)/C=C\\[C@@H](C)C(C)C"
attribute_measured = "Potency"
reported_result = "> 20.6 µM (inactive)"

[[record]]
compound = "COc1ccc(OC)c([C@H](O)CNC(=O)CN)c1"
attribute_measured = "Potency"
reported_result = "> 20.6 µM (inactive)"

[[record]]
compound = "CN(C)CCn1nnnc1SCC1=C(C(=O)O)N2C(=O)[C@@H](NC(=O)Cc3csc(N)n3)[C@@H]2SC1"
attribute_measured = "Potency"
reported_result = "> 20.6 µM (inactive)"

[[record]]
compound = "O=C(O)c1cc2ccccc2c(Cc2cc3ccccc3c(C(=O)O)c2O)c1O (tested in a mixture with another compound)"
attribute_measured = "Potency"
reported_result = "> 20.6 µM (inactive)"

[[record]]
compound = "C[C@@H]1O[C@H](O[C@@H]2[C@@H](Oc3cc(O)c4c(c3)O[C@H](c3ccc(O)cc3)CC4=O)O[C@@H](CO)[C@@H](O)[C@H]2O)[C@@H](O)[C@H](O)[C@@H]1O"
attribute_measured = "Potency"
reported_result = "> 20.6 µM (inactive)"

[[record]]
compound = "CO/N=C(\\C(=O)N[C@@H]1C(=O)N2C(C(=O)O)=C(COC(N)=O)CS[C@@H]12)c1ccco1"
attribute_measured = "Potency"
reported_result = "> 20.6 µM (inactive)"

[[record]]
compound = "C/C(=C\\CNc1ncnc2nc[nH]c12)CO"
attribute_measured = "Potency"
reported_result = "> 46 µM (inactive)"

[[record]]
compound = "C[C@@]12CC[C@@H]3c4ccc(O)cc4CC[C@H]3[C@H]1C[C@@H](O)[C@H]2O"
attribute_measured = "Potency"
reported_result = "> 20.6 µM (inactive)"

[[record]]
compound = "O=C(O)[C@@H]1CCCN1"
attribute_measured = "Potency"
reported_result = "> 46 µM (inactive)"

[[record]]
compound = "COc1ccc(-c2cc(=O)c3c(O)cc(O)cc3o2)cc1"
attribute_measured = "Potency"
reported_result = "> 20.6 µM (inactive)"

[[record]]
compound = "CC[N+](CC)(CC)CC[C@](O)(c1ccccc1)C1CCCCC1"
attribute_measured = "Potency"
reported_result = "> 20.6 µM (inactive)"

[[record]]
compound = "Nc1ncnc2c1ncn2[C@@H]1O[C@H](COP(=O)(O)O)[C@@H](O)[C@@H]1O"
attribute_measured = "Potency"
reported_result = "> 20.6 µM (inactive)"

[[record]]
compound = "NC[C@@H]1O[C@H](O[C@H]2[C@H](O)[C@H](O[C@@H]3O[C@H](CO)[C@@H](O)[C@H](N)[C@@H]3O)[C@@H](N)C[C@H]2N)[C@@H](O)[C@H](O)[C@@H]1O"
attribute_measured = "Potency"
reported_result = "> 20.6 µM (inactive)"


Taken from PubChem BioAssay (NCATS).
